In this section, each of the compounds is paired with its reported EC50.
Target: UniProtKB P62993
Assay: fluorescence anisotropy assay measuring GRB2 dimerization
Format: biochemical
Settings: 100 nM Atto488 labeled GRB2; NB = No Binding (inability to induce GRB2 dimerization); read-out: EC50 anisotropy, compound induced GRB2 dimerization
// unit must come after the numeric part

# example entries with known answers
COc1ccccc1NC(=O)Nc1ccc2c(c1)CC(=O)N2 4.5 µM
O=C1Cc2cc(NC(=O)Nc3ccc(F)cc3)ccc2N1 49.7 µM

Q: Request - read-out EC50 | tested on UniProtKB P62993 | compound `O=C(Nc1cc(F)cc(F)c1)Nc1ccc2[nH]c(=O)[nH]c2c1`
A: 4.6 µM

Q: What do you have for `O=C(Nc1ccccc1)Nc1ccc2[nH]c(S)nc2c1` ?
A: 116 µM

Q: What do you have for `CSc1nc2cc(C(=O)Nc3cccc(F)c3)ccc2[nH]1` ?
A: 502 µM

Q: What do you have for `Cc1ccc(NC(=O)Nc2ccc3[nH]c(=O)[nH]c3c2)cc1` ?
A: 1 µM

Q: What do you have for `O=C1Cc2cc(NC(=O)Nc3cc(F)cc(F)c3)ccc2N1` ?
A: 1.1 µM

Q: What do you have for `O=C(Nc1ccccc1)Nc1ccc2[nH]c(SCc3ccc(F)cc3)nc2c1` ?
A: 350 µM

Q: What do you have for `COc1cccc(NC(=O)Nc2ccc3[nH]c(=O)oc3c2)c1` ?
A: 9.7 µM

Q: What do you have for `O=C1Cc2cc(NC(=O)Nc3cccc(Br)c3)ccc2N1` ?
A: 4.6 µM

###

Biological target: GRB2 (Homo sapiens, UniProt P62993)
Sequence (P62993 whole entry): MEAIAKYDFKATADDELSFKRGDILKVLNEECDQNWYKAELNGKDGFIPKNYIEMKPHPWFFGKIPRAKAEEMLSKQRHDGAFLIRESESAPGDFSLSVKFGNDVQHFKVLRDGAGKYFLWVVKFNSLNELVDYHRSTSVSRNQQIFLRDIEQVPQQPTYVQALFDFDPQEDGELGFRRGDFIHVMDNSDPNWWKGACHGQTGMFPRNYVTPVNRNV
Assay: fluorescence anisotropy assay measuring GRB2 dimerization
Conditions: 100 nM Atto488 labeled GRB2; NB = No Binding (inability to induce GRB2 dimerization); read-out: EC50 anisotropy, compound induced GRB2 dimerization
pEC50: −log10 of the molar value.
Output class 1 for pEC50 not less than 5; output class 0 otherwise.

Compound	Measurement target	Discrete label
Cc1ccccc1NC(=O)Nc1ccc2[nH]c(S)nc2c1	GRB2 (Homo sapiens, UniProt P62993)	class 1

Q: Threshold query (pEC50 >= 5) on `CN1C(=O)Cc2cc(NC(=O)Nc3ccc(F)cc3)ccc21`
A: class 1

Q: What do you have for `COc1cccc(NC(=O)Nc2ccc3c(c2)CC(=O)N3C)c1` ?
A: class 0

Q: What do you have for `Cc1cccc(NC(=O)Nc2ccc3[nH]c(=O)[nH]c3c2)c1C` ?
A: class 0

Q: What do you have for `Cc1cc(C)cc(NC(=O)Nc2ccc3[nH]c(S)nc3c2)c1` ?
A: class 0

Q: What do you have for `O=C(Nc1ccc(Cl)c(Cl)c1)Nc1ccc2[nH]c(=O)[nH]c2c1` ?
A: class 1

Q: What do you have for `COC(=O)c1cccc(NC(=O)Nc2ccc3[nH]c(=O)[nH]c3c2)c1` ?
A: class 0

Q: What do you have for `O=C(Nc1cc(F)cc(F)c1)Nc1ccc2[nH]c(SCc3ccc(F)cc3)nc2c1` ?
A: class 0

Q: What do you have for `COC(=O)c1cccc(NC(=O)c2ccc3[nH]c(S)nc3c2)c1` ?
A: class 0

Q: What do you have for `O=C(NCc1ccc(F)cc1)Nc1ccc2[nH]c(SCc3ccc(F)cc3)nc2c1` ?
A: class 0

Q: What do you have for `O=C(Nc1cc(F)cc(F)c1)Nc1ccc2[nH]c(S)nc2c1` ?
A: class 1

Q: What do you have for `CC(=O)c1cccc(NC(=O)Nc2ccc3[nH]c(SCc4ccc(F)cc4)nc3c2)c1` ?
A: class 0

###

Target: GRB2 (Homo sapiens)
Assay: fluorescence anisotropy assay measuring GRB2 dimerization
Conditions: 100 nM Atto488 labeled GRB2; NB = No Binding (inability to induce GRB2 dimerization); read-out: EC50 anisotropy, compound induced GRB2 dimerization
Observable: pEC50
Convention used: pEC50 is expressed as -log10 of the molar concentration.

# example entries with known answers
Compound	Measurement target	pEC50
N#Cc1ccc(NC(=O)Nc2ccc3[nH]c(S)nc3c2)cc1 [GRB063]	GRB2 (Homo sapiens)	3.91
O=C1Cc2cc(NC(=O)Nc3cccc(Cl)c3)ccc2N1 [GRB004]	GRB2 (Homo sapiens)	4.59
COC(=O)c1cccc(NC(=O)Nc2ccc3c(c2)CC(=O)N3)c1 [GRB094]	GRB2 (Homo sapiens)	4.64
O=C1Cc2cc(NC(=S)Nc3cccc(Cl)c3)ccc2N1 [GRB095]	GRB2 (Homo sapiens)	4.29
Cc1ccc(S(=O)(=O)Nc2ccc3[nH]c(S)nc3c2)cc1 [GRB078]	GRB2 (Homo sapiens)	3.36
O=C1Cc2cc(NC(=S)Nc3ccc(Cl)c(Cl)c3)ccc2N1 [GRB086]	GRB2 (Homo sapiens)	5.82
O=C(NCc1ccccc1)Nc1ccc2[nH]c(=O)[nH]c2c1 [GRB049]	GRB2 (Homo sapiens)	4.94
O=c1[nH]c2ccc(NC(=S)Nc3ccc(Cl)c(Cl)c3)cc2[nH]1 [GRB048]	GRB2 (Homo sapiens)	5.08

Q: Which pEC50 is listed for CCN1C(=O)Cc2cc(NC(=O)Nc3ccc(Cl)cc3)ccc21 [GRB010] ?
A: 5.41

Q: What do you have for Cc1cc(C)cc(NC(=O)Nc2ccc3[nH]c(SCc4ccc(F)cc4)nc3c2)c1 [GRB067] ?
A: 4.32

Q: What do you have for O=C(Nc1ccc(F)c(Cl)c1)Nc1ccc2[nH]c(=O)[nH]c2c1 [GRB031] ?
A: 4.39

###

In this section, each of the compounds is paired with its reported EC50.
Biological target: GRB2 (Homo sapiens)
Experiment: fluorescence anisotropy assay measuring GRB2 dimerization
Details: 100 nM Atto488 labeled GRB2; NB = No Binding (inability to induce GRB2 dimerization); read-out: EC50 anisotropy, compound induced GRB2 dimerization
Entry rule: numbers only, all in µM.

# example entries with known answers
O=C(Nc1cccc(C(F)(F)F)c1)Nc1ccc2[nH]c(=O)[nH]c2c1 2
Cc1cccc(NC(=O)Nc2ccc3c(c2)CC(=O)N3)c1C 9.1
COc1cccc(NC(=O)Nc2ccc3[nH]c(S)nc3c2)c1 129
O=C1Cc2cc(NC(=O)Nc3ccc(F)c(Cl)c3)ccc2N1 8.3
CCN1C(=O)Cc2cc(NC(=O)Nc3ccc(Cl)c(Cl)c3)ccc21 5.5
Cc1cc(NC(=O)Nc2ccc3c(c2)CC(=O)N3)ccc1Cl 13
O=C(Nc1ccc(F)cc1)Nc1ccc2[nH]c(=O)[nH]c2c1 9.7
O=C(Nc1cc(Cl)cc(Cl)c1)Nc1ccc2[nH]c(=O)oc2c1 13
O=C(Nc1cccc(F)c1)Nc1ccc2[nH]c(=O)[nH]c2c1 3.1
O=c1[nH]c2ccc(NC(=S)NCCN3CCOCC3)cc2[nH]1 56

Q: Request - read-out EC50 | tested on GRB2 (Homo sapiens) | compound `N#Cc1cccc(NC(=O)Nc2ccc3[nH]c(=O)[nH]c3c2)c1`
A: 6

Q: What do you have for `O=C1Cc2cc(NC(=O)Nc3cccs3)ccc2N1` ?
A: 9.7

Q: What do you have for `O=C(Nc1cccc(F)c1)Nc1ccc2[nH]c(SCc3ccc(F)cc3)nc2c1` ?
A: 23

Q: What do you have for `O=C1Cc2cc(NC(=O)Nc3cc(Cl)cc(Cl)c3)ccc2N1` ?
A: 13.8

Q: What do you have for `O=C(Nc1ccc2ccccc2c1)Nc1ccc2[nH]c(SCc3ccc(F)cc3)nc2c1` ?
A: 128

Q: What do you have for `Cc1ccc(NC(=O)Nc2ccc3c(c2)CC(=O)N3)c(C)c1` ?
A: 15.5

Q: What do you have for `COc1cccc(NC(=O)Nc2ccc3[nH]c(=O)[nH]c3c2)c1` ?
A: 264

###

Molecular target: UniProtKB P62993
Assay: ITC binding to GRB2
Conditions: read-out: Kd, binding to GRB2 by ITC
Observable: pKd
Convention used: pKd is expressed as -log10 of the molar concentration.

Q: Which pKd is listed for `O=C1Cc2cc(NC(=O)Nc3ccc(F)cc3)ccc2N1` ?
A: 4.43

###

Target: GRB2 (Homo sapiens)
Assay: ITC binding to GRB2
Conditions: read-out: Kd, ITC binding isotherm
Excerpt: Validation of in vitro binding of GRB001 to GRB2 with ITC as an alternative technique. […] GRB001 is able to bind GRB2 in two different conformations as reflected by the energy signature (inset). FIGS. 14A-14C show ITC binding isotherm of GRB001 binding to GRB2 as in FIG. 4 (FIG. 14A).
Observable: pKd
Convention used: pKd is expressed as -log10 of the molar concentration.

Q: Which pKd is listed for O=C1Cc2cc(NC(=O)Nc3cc(Cl)cc(Cl)c3)ccc2N1 [GRB092] ?
A: 6.28

###

In this section, each of the compounds is paired with its reported IC50 at 72 h.
Test: Sulforhodamine B (SRB) cytotoxicity in HEK293T cells
Format: cell-based
Details: human

Q: Which IC50 at 72 h is listed for `O=c1[nH]c2ccc(NC(=S)Nc3ccc(Cl)c(Cl)c3)cc2o1` ?
A: 1500 nM

Q: What do you have for `COc1ccc(Cl)cc1NC(=O)Nc1ccc2[nH]c(=O)oc2c1` ?
A: > 120000 nM
